# Tested on: DU-145
# PROTOCOL_SUMMARY: Anticancer activity against human DU145 cells assessed as growth inhibition at 50 uM after 48 hrs by SRB assay
# Assay type: functional
# CONDITION_PARAMETERS: DU-145, 48 h, read-out: GI
Recorded measurements of inhibition of growth at 50 µM, one per entry
Number only, in %; omit the unit.

Would you please look over these solved cases?
Qu. Annotate the compound "CC(=O)O[C@H]1CC[C@@]2(C)[C@@H](CC[C@]3(C)[C@@H]2C(=O)C=C2[C@@H]4[C@@H](C)[C@H](C)CC[C@]4(C)CC[C@]23C)[C@@]1(C)C(=O)O" with its measured inhibition of growth at 50 µM.
Ans. 83

Qu. Name the recorded inhibition of growth at 50 µM of the item "CCC(=O)O[C@H]1CC[C@@]2(C)[C@@H](CC[C@]3(C)[C@@H]2CC=C2[C@@H]4[C@@H](C)[C@H](C)CC[C@]4(C)CC[C@]23C)[C@@]1(C)C(=O)O" in your answer.
Ans. 88

Qu. Quick one: give measured inhibition of growth at 50 µM for "C[C@H]1[C@H](C)CC[C@]2(C)CC[C@]3(C)C(=CC[C@@H]4[C@@]5(C)CC[C@@H](OC=O)[C@](C)(C(=O)O)[C@@H]5CC[C@]43C)[C@H]12"
Ans. 90

Qu. Provide inhibition of growth at 50 µM value for the following compound: "COC(=O)[C@@]1(C)[C@H](O)CC[C@@]2(C)[C@H]1CC[C@]1(C)[C@@H]2CC=C2[C@@H]3[C@@H](C)[C@H](C)CC[C@]3(C)CC[C@]21C"
Ans. 85

Alright, here's another compound for you.
Qu. State its inhibition of growth at 50 µM: "CCC(=O)O[C@@H]1CC[C@@]2(C)[C@@H](CC[C@]3(C)[C@@H]2C(=O)C=C2[C@@H]4[C@@H](C)[C@H](C)CC[C@]4(C)CC[C@]23C)[C@@]1(C)C(=O)O"
Ans. 25

---

# System: HEp-2
# PROTOCOL_SUMMARY: Anticancer activity against human Hep2 cells assessed as growth inhibition at 50 uM after 48 hrs by SRB assay
# Format: functional
# CONDITION_PARAMETERS: HEp-2, 48 h, read-out: GI
QUANTITY_NAME: inhibition of growth at 50 µM

Known inhibition of growth at 50 µM results, listed for orientation:
Qu. Give a short answer stating reported inhibition of growth at 50 µM for "C[C@H]1[C@H](C)CC[C@]2(C)CC[C@]3(C)C(=CC(=O)[C@@H]4[C@@]5(C)CC[C@@H](O)[C@](C)(C(=O)O)[C@@H]5CC[C@]43C)[C@H]12" .
Ans. 35%

Qu. Identify measured inhibition of growth at 50 µM corresponding to "COC(=O)[C@@]1(C)C(=O)CC[C@]2(C)[C@H]3C(=O)C=C4[C@@H]5[C@@H](C)[C@H](C)CC[C@]5(C)CC[C@@]4(C)[C@]3(C)CC[C@@H]12"
Ans. 10%

Qu. # return recorded inhibition of growth at 50 µM for input "CCCC(=O)O[C@H]1CC[C@@]2(C)[C@@H](CC[C@]3(C)[C@@H]2C(=O)C=C2[C@@H]4[C@@H](C)[C@H](C)CC[C@]4(C)CC[C@]23C)[C@@]1(C)C(=O)O"
Ans. 66%

Qu. Name the recorded inhibition of growth at 50 µM of the item "C[C@H]1[C@H](C)CC[C@]2(C)CC[C@]3(C)C(=CC[C@@H]4[C@@]5(C)CC[C@H](OC(=O)CCC(=O)O)[C@](C)(C(=O)O)[C@@H]5CC[C@]43C)[C@H]12" in your answer.
Ans. 11%

Qu. Give the value of inhibition of growth at 50 µM reported for the following: "COC(=O)[C@@]1(C)[C@H](O)CC[C@@]2(C)[C@H]1CC[C@]1(C)[C@@H]2CC=C2[C@@H]3[C@@H](C)[C@H](C)CC[C@]3(C)CC[C@]21C"
Ans. 26%

More entries:
Qu. Find the measured inhibition of growth at 50 µM of "C[C@H]1[C@H](C)CC[C@]2(C)CC[C@]3(C)C(=CC[C@@H]4[C@@]5(C)CC[C@@H](OC=O)[C@](C)(C(=O)O)[C@@H]5CC[C@]43C)[C@H]12" and report it.
Ans. 72%

Qu. Give the reported value of inhibition of growth at 50 µM for this record: "COc1cccc2c1C(=O)c1c(O)c3c(c(O)c1C2=O)C[C@@](O)(C(=O)CO)C[C@@H]3O[C@H]1C[C@H](N)[C@H](O)[C@H](C)O1"
Ans. 64%

Qu. State, in one line, measured inhibition of growth at 50 µM of "C[C@H]1[C@H](C)CC[C@]2(C)CC[C@]3(C)C(=CC[C@@H]4[C@@]5(C)CC[C@H](O)[C@](C)(C(=O)O)[C@@H]5CC[C@]43C)[C@H]12"
Ans. 69%

Qu. Give a short answer stating reported inhibition of growth at 50 µM for "CO[C@@]12[C@H](COC(N)=O)C3=C(C(=O)C(C)=C(N)C3=O)N1C[C@@H]1N[C@@H]12" .
Ans. 58%

Qu. Look up inhibition of growth at 50 µM of "CCC(=O)O[C@H]1CC[C@@]2(C)[C@@H](CC[C@]3(C)[C@@H]2C(=O)C=C2[C@@H]4[C@@H](C)[C@H](C)CC[C@]4(C)CC[C@]23C)[C@@]1(C)C(=O)O" and report it.
Ans. 63%

Qu. Identify measured inhibition of growth at 50 µM corresponding to "O=c1[nH]cc(F)c(=O)[nH]1"
Ans. 29%

Qu. Determine from records and report inhibition of growth at 50 µM for "COC(=O)[C@@]1(C)C(=O)CC[C@]2(C)[C@H]3CC=C4[C@@H]5[C@@H](C)[C@H](C)CC[C@]5(C)CC[C@@]4(C)[C@]3(C)CC[C@@H]12"
Ans. 7%

---

# System: DU-145
# PROTOCOL_SUMMARY: Anticancer activity against human DU145 cells assessed as growth inhibition at 50 uM after 48 hrs by SRB assay
# Type: functional
# CONDITION_PARAMETERS: DU-145, 48 h, read-out: GI
Okay, here is how we bin by inhibition of growth at 50 µM: range 1 = under 50%, range 2 = from 50% up to 90%, range 3 = 90% and over

Check out these entries, answers already filled in.
Qu. Band assignment needed for "C[C@H]1[C@H](C)CC[C@]2(C)CC[C@]3(C)C(=CC(=O)[C@@H]4[C@@]5(C)CC[C@@H](OC=O)[C@](C)(C(=O)O)[C@@H]5CC[C@]43C)[C@H]12" please.
Ans. range 2

Qu. Sort into band: "C[C@H]1[C@H](C)CC[C@]2(C)CC[C@]3(C)C(=CC(=O)[C@@H]4[C@@]5(C)CC[C@@H](O)[C@](C)(C(=O)O)[C@@H]5CC[C@]43C)[C@H]12"
Ans. range 3

Qu. Lab log: "O=c1[nH]cc(F)c(=O)[nH]1" — assign inhibition of growth at 50 µM category
Ans. range 1

New cases:
Qu. Quick check: band for "COC(=O)[C@@]1(C)[C@H](O)CC[C@@]2(C)[C@H]1CC[C@]1(C)[C@@H]2C(=O)C=C2[C@@H]3[C@@H](C)[C@H](C)CC[C@]3(C)CC[C@]21C"
Ans. range 2

Qu. Textbook exercise: identify the category of the molecule given here, "C[C@H]1[C@H](C)CC[C@]2(C)CC[C@]3(C)C(=CC[C@@H]4[C@@]5(C)CC[C@H](OC(=O)CCC(=O)O)[C@](C)(C(=O)O)[C@@H]5CC[C@]43C)[C@H]12" , according to its measured value.
Ans. range 1

Qu. Which bin, given its inhibition of growth at 50 µM, does "CCCC(=O)O[C@@H]1CC[C@@]2(C)[C@@H](CC[C@]3(C)[C@@H]2C(=O)C=C2[C@@H]4[C@@H](C)[C@H](C)CC[C@]4(C)CC[C@]23C)[C@@]1(C)C(=O)O" occupy?
Ans. range 3

Qu. Hello team, could you let me know which band the following molecule falls into: "C[C@H]1[C@H](C)CC[C@]2(C)CC[C@]3(C)C(=CC(=O)[C@@H]4[C@@]5(C)CC[C@H](OC(=O)CCC(=O)O)[C@](C)(C(=O)O)[C@@H]5CC[C@]43C)[C@H]12"
Ans. range 2

Qu. Dear colleague, I would appreciate it if you could identify the bin for "COC(=O)[C@]1(C)[C@@H]2CC[C@]3(C)[C@H](C(=O)C=C4[C@@H]5[C@@H](C)[C@H](C)CC[C@]5(C)CC[C@]43C)[C@@]2(C)CC[C@@H]1O" and reply at your convenience.
Ans. range 1

---

# Test system: HEp-2
# PROTOCOL_SUMMARY: Anticancer activity against human Hep2 cells assessed as growth inhibition at 50 uM after 48 hrs by SRB assay
# Type: functional
# CONDITION_PARAMETERS: HEp-2, 48 h, read-out: GI
QUANTITY_NAME: inhibition of growth at 50 µM (%)
Write the answer as a number in %, unit excluded.

See these solved cases before continuing.
Qu. Please give the documented inhibition of growth at 50 µM of "CC(=O)O[C@@H]1CC[C@@]2(C)[C@@H](CC[C@]3(C)[C@@H]2C(=O)C=C2[C@@H]4[C@@H](C)[C@H](C)CC[C@]4(C)CC[C@]23C)[C@@]1(C)C(=O)O"
Ans. 59

Qu. Answer with the recorded inhibition of growth at 50 µM of "CCC(=O)O[C@@H]1CC[C@@]2(C)[C@@H](CC[C@]3(C)[C@@H]2CC=C2[C@@H]4[C@@H](C)[C@H](C)CC[C@]4(C)CC[C@]23C)[C@@]1(C)C(=O)O" only.
Ans. 86

# input for lookup
Qu. Quote inhibition of growth at 50 µM reported for "C[C@H]1[C@H](C)CC[C@]2(C)CC[C@]3(C)C(=CC[C@@H]4[C@@]5(C)CC[C@@H](O)[C@](C)(C(=O)O)[C@@H]5CC[C@]43C)[C@H]12" please.
Ans. 43
